molecular target: farnesyl protein transferase (Homo sapiens, UniProt P49354+P49356); assay: FPT IC50 (inhibition of farnesyl protein transferase, in vitro enzyme assay); settings: procedure of WO 95/10516
pIC50: −log10 of the molar value.
Measured attribute: pIC50

Use the examples below as a reference point.
CCOC(=O)CCCNC(=O)[C@H]1CN(C(=O)OC(C)(C)C)CCN1C1c2ccc(Cl)cc2CCc2cccnc21 (single isomer, unassigned) [compound 7] :: 8.26
CCOC(=O)CCCNC(=O)[C@H]1CN(C(=O)OC(C)(C)C)CCN1C1c2ccc(Cl)cc2CCc2cccnc21 (single isomer, unassigned) [compound 6] :: 8.28
CC(C)(C)OC(=O)N1CCN(C2c3ccc(Cl)cc3CCc3cccnc32)[C@@H](C(=O)NCCCC(=O)O)C1 (single isomer, unassigned) [compound 8] :: 8.26

[P] CC(C)(C)OC(=O)N1CCN(C2c3ccc(Cl)cc3CCc3cccnc32)[C@@H](C(=O)NCCCC(=O)O)C1 (single isomer, unassigned) [compound 9]
[Q] CC(C)(C)OC(=O)N1CCN(C2c3ccc(Cl)cc3CCc3cccnc32)[C@@H](C(=O)NCCCn2ccnc2)C1 (some centres unmarked)
[ask] Given P and given Q , which shows the smaller recorded pIC50? Mark your selection by writing its label.
[reply] P
(P: 8.20, Q: 8.92)
